Where do these numbers come from? They come from PubChem BioAssay (NCI).

# PROTOCOL DETAILS: NCI Yeast Anticancer Drug Screen. Data for the rad50 strain (AID 155)
# ASSAY CONTEXT: S. cerevisiae rad50 strain growth inhibition; at 50.0 µM; hits give high values
# Protocol: Growth inhibition of yeast strains with defined genetic alterations is measured as a screen for potential anti-cancer activity. Selected strains with alterations in DNA damage repair or cell cycle control were exposed to compounds and growth inhibition was measured relative to vehicle treated controls. The strain used in this assay is rad50
This is part of a sample that, as a whole, favours compounds with a hit. Of some 79,000 tested, about 15% had one in any assay.
I would appreciate it if you labelled entries Y when growth inhibition is 20% or higher, otherwise N.

In plain terms: is recorded growth inhibition at least 20% for c1ccc(C2=NOCC3(c4ccccc4)OC23)cc1 (stereo unspecified) ? N

And the next one, CC(=O)Nc1cccc(O)c1 ? N

Would you kindly repeat that for CN(C)c1ccc(C=C2c3ccccc3-c3ccccc32)cc1 ? N

What about this compound? COc1ccc(N(C)S(=O)(=O)c2ccccc2)cc1 N

Moving on to the next compound: CCOC(=O)/C=C\C(=O)OCC Y

---
Quick check, growth inhibition >= 20%? CC(C)(C)[N+](=O)[O-] N

# iterate: C=C1C(=O)OC(CCCCCCCCCCCCCC(C)=O)[C@H]1C(=O)O (stereo partly specified) N

Field entry: CC(C)CCC[C@@H](C)[C@H]1CC[C@H]2[C@@H]3CC[C@H]4C[C@H](N[C@@H]5CC[C@@]6(C)[C@@H](CC[C@@H]7[C@@H]6CC[C@]6(C)[C@@H]([C@H](C)CCCC(C)C)CC[C@@H]76)C5)CC[C@]4(C)[C@H]3CC[C@]12C Y

What about this compound? COc1cc(OC)c(C(=O)/C=C/c2ccccc2)c(O)c1OC Y

Another compound to look at: CC(C)OC(=O)c1ccc(NCC2=CC(=O)C=CC2=O)cc1 Y

One more compound: COCC(=O)c1ccccc1 N

Consider next the compound N#Cc1sc2nc3c(c(-c4ccccc4)c2c1N)CCCC3 in the same way. N

Also CCC(=O)C1C(=O)CC(=O)C(C)C1c1ccccc1OC (stereo unspecified) ? N

What do you have for NC1(C(=O)O)CCCc2ccccc21 (stereo unspecified) ? N

Same for CCCCCCCC/C=C\CCCCCCCC(=O)OCCN(CCOC(=O)CCCCCCC/C=C/CCCCCCCC)C(=O)COC(=O)CCCCCCC/C=C\CCCCCCCC N

What do we get for Cc1ccccc1Nc1nc2ccccc2nc1NS(=O)(=O)c1ccccc1 ? N

Record: Cc1cc2nc3ccc(O)cc3[n+](C)c2cc1N Y

One more compound: COC(=O)C1=CO[C@@H](O)[C@@H]2C(C)OC(=O)C[C@H]12 (stereo partly specified) N

Another compound to look at: COC(=O)C(=O)c1c(-c2ccc(O)c(OC)c2)[nH]c2[nH]n(-c3ccccc3)c(=O)c2c1=O Y

What about this compound? CCOC(=O)NC(=O)c1cn(CCN2CCN(C(=O)CCCCCCCCCCC(=O)N3CCN(CCn4cc(C(=O)NC(=O)OCC)c(=O)[nH]c4=O)CC3)CC2)c(=O)[nH]c1=O N

CCN(CC)C(=O)Oc1cc(C(=O)N(CC)CC)c(OC(=O)N(CC)CC)cc1C(=O)N(CC)CC ? N
